Recorded values, source patent US10993926B2.

# EXPERIMENT_SUMMARY: Acute toxicity test in mice with rapid administration (IV)
# Assay type: in vivo
# TEST_CONDITIONS: both sexes, mouse, in vivo, iv, mice, IV, administration completed within 5 seconds; read-out: LD50 (Bliss method, Feiller heterogeneity correction)
QUANTITY_KIND: LD50
Field note: include the unit after the figure.

Looking up CC(C)OC(=O)C(O)Cc1ccc(O)c(O)c1 (stereo not shown) [IDHP] , I see its LD50 listed as 424 mg/kg

----------
# EXPERIMENT_SUMMARY: Acute toxicity test in mice with rapid administration (IV)
# Format: in vivo
# TEST_CONDITIONS: both sexes, mouse, in vivo, iv, mice, IV, administration completed within 5 seconds; read-out: LD50 (regression equation, without heterogeneity correction)
QUANTITY_KIND: LD50 (mg/kg)
Report as a plain number; the unit mg/kg is understood.

Looking up CC(C)OC(=O)C(O)Cc1ccc(O)c(O)c1 (stereo not shown) , I see its LD50 listed as 424
